assay: Screening of excipients for their capability to dissolve LAC-34 free base at room temperature; format: physicochemical; conditions: 22 °C, oil or lipid, thermodynamic from solid, in isopropyl palmitate

# molecule, solubility
measured = [
    ("c1ccc(N(CCC2CCCCN2)C2Cc3ccccc3C2)cc1 (racemic)", "50 to 100 mg/mL"),
]

----------
assay: Screening of excipients for their capability to dissolve LAC-34 free base at room temperature; assay type: physicochemical; conditions: 22 °C, organic solvent or mixture, thermodynamic from solid, in ethanol

# compound, solubility
records = [
    ("c1ccc(N(CCC2CCCCN2)C2Cc3ccccc3C2)cc1 (racemic)", "> 86 mg/mL"),
]
